tested on: MOLT-4 leukemia; test: NCI-60 one-dose screen, 48 h; conditions: 10 µM unless noted
Compounds without any hit were thinned out: in the full panel of roughly 83,000, 20% have a hit. Active and inactive are the calls of the source. The calls were made as follows: active = growth percent below 10; inactive = the rest.
Tick one outcome: 1 = active, -1 = inactive

>  <molecule>
CCOC(=O)c1[nH]c(=O)c2c(C)nc(-c3ccccc3)cc2c1O

>  <group>
-1

$$$$
>  <molecule>
COc1cc2oc(-c3cccc(NC(=O)c4cccc(Br)c4)c3)cc(=O)c2c(OC)c1OC

>  <group>
-1

$$$$

QUERY: Could you please tell me the result logged for CN(C)CCCC1(c2ccc(F)cc2)OCc2cc(-c3cccc4[nH]ccc34)ccc21 (stereo unspecified) in this assay?
RESULT: 1

QUERY: Could you please tell me the result logged for O=C(Cc1ccccc1)Nc1nc(O)c(/C=C2\C(=O)C=Cc3ccccc32)s1 in this assay?
RESULT: -1

QUERY: Could you please tell me the result logged for CCOC(=O)c1cc(C(=O)c2cc(OC)c(OC)c(OC)c2)n2ccc(-c3ccncc3)cc12 in this assay?
RESULT: -1

###

test system: T-47D breast; experiment: NCI-60 one-dose screen, 48 h; settings: 10 µM unless noted
This is part of a sample that, as a whole, favours compounds with a hit. Of some 83,000 tested, about 20% had one in any assay. Activity calls are given as the source filed them. How the source made its calls: active means growth percent below 10; inactive means the rest.
Tick one outcome: 1.0 = active, 0.0 = inactive

>  <molecule>
CCCC(O)Cn1ncc(C(=O)OCC)c1NC(=O)NCc1ccccc1F (stereo not drawn)

>  <group>
0.0

$$$$
>  <molecule>
O=C(CI)NC1Oc2ccccc2-c2oc(=O)c(-c3ccccc3)cc21 (stereo not drawn)

>  <group>
1.0

$$$$
>  <molecule>
COC(C(=O)[C@@H](O)[C@@H](C)O)[C@@H]1Cc2cc3cc(O[C@H]4C[C@@H](O[C@H]5C[C@@H](O)[C@H](O)C(C)O5)[C@H](O)C(C)O4)cc(O)c3c(O)c2C(=O)[C@H]1O[C@H]1C[C@@H](O[C@H]2C[C@@H](O[C@H]3C[C@@H](OC)[C@H](O)C(C)O3)[C@@H](O)C(C)O2)[C@H](O)C(C)O1 (stereo partly drawn)

>  <group>
0.0

$$$$
>  <molecule>
CCn1cc(C(=O)N/N=C/c2cccs2)c(=O)c2cc(F)c(N3CCNC(C)C3)c(F)c21 (stereo not drawn)

>  <group>
0.0

$$$$
>  <molecule>
OCCOCCN(Cc1ccccn1)Cc1cc(I)cc(I)c1O

>  <group>
0.0

$$$$

QUERY: Could you please tell me the result logged for Cc1c(-n2nnc(-c3nc4ccccc4s3)c2N)c(=O)n(-c2ccccc2)n1C in this assay?
RESULT: 0.0

###

system: SNB-75 CNS; assay: NCI-60 one-dose screen, 48 h (100 = growth as untreated, 0 = no growth, -100 = all killed); settings: 10 µM unless noted
Compounds without any hit were thinned out: in the full panel of roughly 83,000, 20% have a hit.
Criterion: growth meeting or surpassing 90%. Met: 1. Not met: -1.

Sample answers from the record:
>  <molecule>
CCC(C)N(c1ccc(Cl)cc1)c1nc(-c2ccc(Br)cc2)cs1 (stereo not given)

>  <group>
1

$$$$
>  <molecule>
Fc1cccc(CNc2c3ccccc3nc3ccccc23)c1F

>  <group>
-1

$$$$
>  <molecule>
COc1ccccc1Nc1nc2c(s1)C1=CC[C@H]3[C@@H]4CC[C@H]([C@H](C)CCCC(C)C)[C@@]4(C)CC[C@@H]3[C@@]1(C)CC2

>  <group>
1

$$$$
>  <molecule>
Oc1c(Cl)cc(Cl)c2ccc(Cn3cc(-c4cc(F)cc(F)c4)nn3)nc12

>  <group>
-1

$$$$

Kindly review the next molecule as well.
QUERY: Threshold query (growth >= 90%) on Nc1ncnc2c1N=C(c1ccc(Cl)cc1)CC(c1ccc3c(c1)OCO3)N2 (stereo not given)
RESULT: -1
